FYI, the data here is from ChEMBL document CHEMBL1143409.

Tested on: Staphylococcus aureus
Procedure Text: Antimicrobial activity against methicillin-resistant Staphylococcus aureus effluxing isolate
Type: functional
Catalogue of compounds with associated MIC90
Answer format: numeric, µg/mL implied, no suffix.

Recorded MIC90, per entry:
CC[n+]1c(-c2ccccc2)c2cc(N)ccc2c2ccc(N)cc21.[Br-] [HOMIDIUM BROMIDE]	25
[Br-].c1ccc([P+](c2ccccc2)(c2ccccc2)c2ccccc2)cc1 [TETRAPHENYLPHOSPHONIUM BROMIDE]	50
N=C(NCCCCCCNC(=N)NC(=N)Nc1ccc(Cl)cc1)NC(=N)Nc1ccc(Cl)cc1 [CHLORHEXIDINE]	0.63
C[n+]1c2cc(N)ccc2cc2ccc(N)cc21.[Cl-] [EUFLAVINE]	50

Consider now this further compound.
Need MIC90, item Cc1cc(N)c2ccccc2[n+]1CCCCCCCCCC[n+]1c(C)cc(N)c2ccccc21.[Cl-].[Cl-] [DEQUALINIUM CHLORIDE]
5
